# Plant response rating, Sedge, Umbrella values compiled below
System: sedge, umbrella (small-flower umbrella sedge, Cyperus difformis)
TEST_SUMMARY: Test C flooded paddy test: sedge, umbrella
Assay type: in vivo
PROTOCOL_CONDITIONS: Flood (flooded paddy test), 250 g ai/ha; visual rating after 13 to 15 days, scale 0 to 100 (0 no effect, 100 complete control)
Keep it simple and answer with nothing but the number.

Answered examples (2):
### Prompt Lab note: need Plant response rating, Sedge, Umbrella for "Cc1nn(-c2cccc(I)c2)nc1C(=O)c1cccc(C(F)(F)F)c1" on sedge, umbrella (small-flower umbrella sedge, Cyperus difformis), anyone have it?
### Response 0

### Prompt Give sedge, umbrella (small-flower umbrella sedge, Cyperus difformis) Plant response rating, Sedge, Umbrella for "Cc1nn(-c2ccc(I)cc2)nc1C(=O)c1cccc(C(F)(F)F)c1"
### Response 0

***
### Prompt # get_value(readout= Plant response rating, Sedge, Umbrella, system= sedge, umbrella (small-flower umbrella sedge, Cyperus difformis)) for "Cc1nn(-c2ccc(F)cc2)nc1Cn1ccc(C(F)(F)F)n1"
### Response 70

### Prompt Which Plant response rating, Sedge, Umbrella is reported with sedge, umbrella (small-flower umbrella sedge, Cyperus difformis) for this entry: "Cc1nn(-c2ccc(C(F)(F)F)cc2)nc1Cc1cnn(CC(F)(F)F)c1" ?
### Response 0

### Prompt sedge, umbrella (small-flower umbrella sedge, Cyperus difformis) / Plant response rating, Sedge, Umbrella / "Cc1nn(-c2ccc(Cl)cc2)nc1Oc1ccnc(C(F)(F)F)c1" : value?
### Response 85

### Prompt So what Plant response rating, Sedge, Umbrella did "Cc1nn(-c2ccncc2)nc1C(=O)c1cccc(C(F)(F)F)c1" get with sedge, umbrella (small-flower umbrella sedge, Cyperus difformis)?
### Response 0

### Prompt Form: Entry = "Cc1nn(-c2ccc(C(F)(F)F)cc2)nc1Oc1cnn(CC(F)(F)F)c1" | System = sedge, umbrella (small-flower umbrella sedge, Cyperus difformis) | Plant response rating, Sedge, Umbrella = ____
### Response 0

### Prompt What measured Plant response rating, Sedge, Umbrella is associated with "Cc1nn(-c2ccc(Cl)cc2)nc1C(=O)c1cccc(C(F)(F)F)c1" on sedge, umbrella (small-flower umbrella sedge, Cyperus difformis)?
### Response 0

* * *

System: kochia (Kochia scoparia)
TEST_SUMMARY: Test C pre-/postemergence: kochia
Assay type: in vivo
PROTOCOL_CONDITIONS: Postemergence, 62 g ai/ha; scale 0 to 100 (0 no effect, 100 complete control)
OBSERVABLE: Plant response rating, Kochia
Write no unit; give the number alone.

Below: 3 molecules and their reported Plant response rating, Kochia.
### Prompt Look up Plant response rating, Kochia: "Cc1nn(-c2ccnc(C(F)(F)F)c2)nc1Cc1ccnc(C(F)(F)F)c1"
### Response 90

### Prompt If you can, please state the reported Plant response rating, Kochia value of "Cc1nn(-c2ccc(C(F)(F)F)cc2)nc1Cc1cccc(C(F)(F)F)c1" .
### Response 80

### Prompt For "Fc1ccc(-n2nc(Cc3ccnc(C(F)(F)F)c3)c(OCC(F)(F)F)n2)cc1" , what is its reported Plant response rating, Kochia?
### Response 90

Now consider the entry below.
### Prompt Which Plant response rating, Kochia is reported for this molecule? "Cc1nn(-c2ccc(F)cc2)nc1Cc1ccnc(C(F)(F)F)c1"
### Response 98

* * *

Test system: wild oat (Avena fatua)
TEST_SUMMARY: Test C pre-/postemergence: wild oat
Type: in vivo
PROTOCOL_CONDITIONS: Postemergence, 62 g ai/ha; scale 0 to 100 (0 no effect, 100 complete control)
We begin with a simple list: items and their reported Plant response rating, Oat, Wild.
I'd appreciate a reply containing only the number, no unit.

Known Plant response rating, Oat, Wild results, listed for orientation:
### Prompt Find the measured Plant response rating, Oat, Wild: item "Fc1ccc(-n2nc(Cc3ccnc(C(F)(F)F)c3)c(OCC(F)(F)F)n2)cc1" , target or system wild oat (Avena fatua).
### Response 45

### Prompt # get_value(readout= Plant response rating, Oat, Wild, system= wild oat (Avena fatua)) for "Cc1nn(-c2ccc(F)cc2)nc1Cc1ccnc(C(F)(F)F)c1"
### Response 10

### Prompt Query Plant response rating, Oat, Wild on wild oat (Avena fatua) for "Cc1nn(-c2ccnc(C(F)(F)F)c2)nc1Cc1ccnc(C(F)(F)F)c1"
### Response 50

In the following, a different compound is considered.
### Prompt Hi! What's the reported Plant response rating, Oat, Wild for "CCCc1nn(-c2ccc(F)cc2)nc1Cc1ccnc(C(F)(F)F)c1" on wild oat (Avena fatua)?
### Response 50

* * *

Test system: barley, winter (winter barley, Hordeum vulgare)
TEST_SUMMARY: Test D pre-/postemergence: barley, winter
Type: in vivo
PROTOCOL_CONDITIONS: Preemergence; 62 g ai/ha; scale 0 to 100
Quick reference: Plant response rating, Barley, Winter of the listed items.
Please state the value as a number alone, without comment.

Here is how some compounds turned out for Plant response rating, Barley, Winter.
### Prompt Would you kindly share the measured Plant response rating, Barley, Winter for "Cc1nn(-c2ccc(F)cc2)nc1Oc1ccnc(C(F)(F)F)c1" ?
### Response 0

### Prompt Using the record for "Cc1nn(-c2ccc(F)c(C(F)(F)F)c2)nc1Oc1ccnc(C(F)(F)F)c1" , report its Plant response rating, Barley, Winter.
### Response 5

### Prompt Any idea what its Plant response rating, Barley, Winter is? The compound is "Cc1nn(-c2ccc(F)cc2)nc1Cc1ccnc(C(F)(F)F)c1"
### Response 5

Attention now shifts to the item below.
### Prompt Recorded Plant response rating, Barley, Winter of "CCOc1nn(-c2ccc(F)cc2)nc1Cc1ccnc(C(F)F)c1" , please.
### Response 0

* * *

System: barnyardgrass (Echinochloa crus-galli)
TEST_SUMMARY: Test A pre-/postemergence: barnyardgrass
Format: in vivo
PROTOCOL_CONDITIONS: Postemergence, 125 g ai/ha; 0 to 100 scale, 0 is no effect, 100 is complete control
OBSERVABLE: Barnyardgrass plant response rating
Give the figure by itself; no unit, no explanation.

Example entries and their recorded answers appear below.
### Prompt Need Barnyardgrass plant response rating of "Cc1nn(-c2cccc(C(F)(F)F)c2)nc1Oc1cccc(C(F)(F)F)c1" , thanks.
### Response 0

### Prompt I am curious: what Barnyardgrass plant response rating value has been reported for "CCc1nn(-c2ccc(C(F)(F)F)cn2)nc1Cc1cccc(C(F)(F)F)c1" ?
### Response 40

### Prompt Reported Barnyardgrass plant response rating for "Cc1nn(-c2cccc(I)c2)nc1C(=O)c1cccc(C(F)(F)F)c1" : what is it?
### Response 0

Query compound follows.
### Prompt Consider the compound "Cc1nn(-c2ccc(C(F)(F)F)cc2)nc1C(=O)c1cccc(C(F)(F)F)c1" and give its measured Barnyardgrass plant response rating.
### Response 10

* * *

Test system: nutsedge, yellow (yellow nutsedge, Cyperus esculentus)
TEST_SUMMARY: Test C pre-/postemergence: nutsedge, yellow
Assay type: in vivo
PROTOCOL_CONDITIONS: Preemergence, 125 g ai/ha; scale 0 to 100, 0 no effect, 100 complete control
OBSERVABLE: Plant response rating, Nutsedge, Yellow
Lab note: jot the number down without any unit.

### Prompt # lookup: Plant response rating, Nutsedge, Yellow of CCCc1nn(-c2ccc(F)cc2)nc1Cc1ccnc(C(F)(F)F)c1 [Compound 153]
### Response 5

More entries:
### Prompt What Plant response rating, Nutsedge, Yellow value was documented for this molecule, Cc1nn(-c2ccc(C(F)(F)F)cc2)nc1Cc1ccnc(C(F)(F)F)c1 [Compound 47] ?
### Response 0

### Prompt What value of Plant response rating, Nutsedge, Yellow has been reported for the following molecule? Fc1ccc(-n2nc(Cc3ccnc(C(F)(F)F)c3)c(OCC(F)(F)F)n2)cc1 [Compound 142]
### Response 0

### Prompt GET /values?readout=Plant response rating, Nutsedge, Yellow&item= CCOc1nn(-c2ccc(F)cc2)nc1Cc1ccnc(C(F)F)c1 [Compound 195]
### Response 5

### Prompt # lookup: Plant response rating, Nutsedge, Yellow of Cc1nn(-c2ccc(F)cc2)nc1Oc1ccnc(C(F)(F)F)c1 [Compound 129]
### Response 0

* * *

Test system: wheat (Triticum aestivum)
TEST_SUMMARY: Test A pre-/postemergence: wheat
Type: in vivo
PROTOCOL_CONDITIONS: Postemergence, 125 g ai/ha; 0 to 100 scale, 0 is no effect, 100 is complete control
OBSERVABLE: Wheat plant response rating
Simply state the number, no unit and no words.

Sample records with Wheat plant response rating:
### Prompt Can you share its Wheat plant response rating? I mean this compound: "OCc1nn(-c2ccc(C(F)(F)F)cc2)nc1Oc1cccc(C(F)(F)F)c1"
### Response 10

### Prompt // Wheat plant response rating lookup, key: "Cc1nn(-c2ccc(C(F)(F)F)cn2)nc1Cn1nc(C(F)(F)F)cc1C"
### Response 0

### Prompt Find the recorded Wheat plant response rating belonging to "CSc1ccccc1-n1nc(C)c(C(=O)c2cccc(C(F)(F)F)c2)n1" and report it.
### Response 0

Continuing:
### Prompt If you can, please state the reported Wheat plant response rating value of "Cc1nn(-c2ccc([N+](=O)[O-])cc2)nc1C(=O)c1cccc(C(F)(F)F)c1" .
### Response 0

### Prompt Look at this compound and give its reported Wheat plant response rating. "COc1nn(-c2ccc(F)cc2)nc1Oc1ccnc(C(F)(F)F)c1"
### Response 0
